Each recorded value in this set is attributed to the supplement of paper PMC6555819.

Test system: LXRa homodimer (NR concentration 270 nM)
Assay: PBM binding z-score (relative to random genomic background probes); higher = stronger binding; sequences stand for … in GC…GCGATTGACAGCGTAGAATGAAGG
Tick True if PBM binding z-score is 0.2 or greater. Tick False if PBM binding z-score is less than 0.2.

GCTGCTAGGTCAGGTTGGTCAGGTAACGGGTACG: False
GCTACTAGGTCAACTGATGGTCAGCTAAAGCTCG: True
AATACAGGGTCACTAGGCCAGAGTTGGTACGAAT: True
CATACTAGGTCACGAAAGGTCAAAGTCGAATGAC: True
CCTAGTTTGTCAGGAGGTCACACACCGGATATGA: True

Can "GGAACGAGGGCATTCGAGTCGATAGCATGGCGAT" be said to have PBM binding z-score at or above 0.2? False

Another sequence to check: "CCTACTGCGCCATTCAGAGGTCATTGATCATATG" True

Another sequence to check: "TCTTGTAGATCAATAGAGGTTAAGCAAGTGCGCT" True

Another sequence to check: "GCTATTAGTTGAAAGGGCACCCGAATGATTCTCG" True

Another sequence to check: "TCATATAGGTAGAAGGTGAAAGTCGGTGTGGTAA" False

Another sequence to check: "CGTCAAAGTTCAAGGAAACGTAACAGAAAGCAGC" True

Another sequence to check: "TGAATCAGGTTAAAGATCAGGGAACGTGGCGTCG" False
